Reference source: patent US20120039802A1

Target: T1, human cMet expressed on 3T3 cells (human, UniProt P08581 25-1390)
T1 construct: whole, on cells; cells fixed with glutaraldehyde; also called cell surface-expressed human cMet; 3T3 cells that over-express human cMet
T1 sequence (P08581 25-1390): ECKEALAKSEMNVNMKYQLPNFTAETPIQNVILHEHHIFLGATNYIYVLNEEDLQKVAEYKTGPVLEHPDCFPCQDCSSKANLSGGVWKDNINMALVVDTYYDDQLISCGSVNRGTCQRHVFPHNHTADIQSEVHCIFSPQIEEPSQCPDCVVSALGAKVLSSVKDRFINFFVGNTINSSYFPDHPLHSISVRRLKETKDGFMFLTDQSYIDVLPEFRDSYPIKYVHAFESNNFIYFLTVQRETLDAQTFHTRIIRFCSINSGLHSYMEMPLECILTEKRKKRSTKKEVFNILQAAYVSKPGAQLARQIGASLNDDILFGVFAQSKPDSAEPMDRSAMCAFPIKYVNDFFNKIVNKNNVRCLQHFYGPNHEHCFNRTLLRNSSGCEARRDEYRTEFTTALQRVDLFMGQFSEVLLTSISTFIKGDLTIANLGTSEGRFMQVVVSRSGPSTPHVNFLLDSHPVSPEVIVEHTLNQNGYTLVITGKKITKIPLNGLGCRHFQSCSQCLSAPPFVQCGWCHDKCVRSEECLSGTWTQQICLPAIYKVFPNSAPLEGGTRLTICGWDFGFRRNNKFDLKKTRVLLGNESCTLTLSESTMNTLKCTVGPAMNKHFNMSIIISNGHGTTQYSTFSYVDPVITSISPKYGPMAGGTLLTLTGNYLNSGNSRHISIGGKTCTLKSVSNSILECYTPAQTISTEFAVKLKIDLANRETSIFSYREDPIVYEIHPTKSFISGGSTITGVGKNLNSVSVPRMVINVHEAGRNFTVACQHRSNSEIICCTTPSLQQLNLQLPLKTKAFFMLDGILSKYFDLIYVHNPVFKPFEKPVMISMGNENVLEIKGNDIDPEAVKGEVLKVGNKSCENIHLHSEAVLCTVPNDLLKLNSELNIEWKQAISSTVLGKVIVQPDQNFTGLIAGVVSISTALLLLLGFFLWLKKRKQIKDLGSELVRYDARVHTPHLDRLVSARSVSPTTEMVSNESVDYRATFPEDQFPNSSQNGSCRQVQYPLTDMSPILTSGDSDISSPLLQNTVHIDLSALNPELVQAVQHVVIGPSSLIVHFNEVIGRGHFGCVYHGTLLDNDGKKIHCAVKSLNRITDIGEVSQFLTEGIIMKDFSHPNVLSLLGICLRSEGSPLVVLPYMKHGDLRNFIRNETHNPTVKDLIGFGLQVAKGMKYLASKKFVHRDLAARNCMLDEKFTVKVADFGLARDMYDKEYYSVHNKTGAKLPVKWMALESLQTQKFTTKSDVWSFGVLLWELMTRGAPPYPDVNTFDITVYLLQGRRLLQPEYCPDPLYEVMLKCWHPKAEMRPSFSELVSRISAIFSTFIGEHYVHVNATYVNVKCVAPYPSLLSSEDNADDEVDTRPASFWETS
Test: whole cell phage ELISA, 3T3 human cMet vs 3T3
measure.name: WC ELISA (fold over background) (fold)
Answers are plain numbers, in fold.

Completed entries (count: 6):
[
  {
    "binder": "AGETVCYWLNGWFCVDDGT [274-B07 peptide-displaying phage (SEQ ID NO: 073)]",
    "unit.text": "fold",
    "WC ELISA (fold over background)": 1.1
  },
  {
    "binder": "AQHSVQRQMDVWMPVQFMAGFT [02-B08 peptide-displaying phage (SEQ ID NO: 467)]",
    "unit.text": "fold",
    "WC ELISA (fold over background)": 1.3
  },
  {
    "binder": "AGFVNCKGPPTFECILTGT [538-F08 peptide-displaying phage (SEQ ID NO: 057)]",
    "unit.text": "fold",
    "WC ELISA (fold over background)": 1.23
  },
  {
    "binder": "GSWIICWWDNCGSSAP [571-C05 peptide-displaying phage (SEQ ID NO: 001)]",
    "unit.text": "fold",
    "WC ELISA (fold over background)": 1.3
  },
  {
    "binder": "GSSHCNQMITPWQNCGMRAP [446-E12 peptide-displaying phage (SEQ ID NO: 374)]",
    "unit.text": "fold",
    "WC ELISA (fold over background)": 1.37
  },
  {
    "binder": "AGTVYCSWESSECWWVGT [352-E04 peptide-displaying phage (SEQ ID NO: 019)]",
    "unit.text": "fold",
    "WC ELISA (fold over background)": 1.37
  }
]

--- query ---
QUERY: For the binder AGYPECKDNYHWCEWKGT [457-A09 peptide-displaying phage (SEQ ID NO: 024)] , give its reported WC ELISA (fold over background).
RESULT: 1.3
